Biological target: UniProt Q9NTG7
Sequence (Q9NTG7 whole entry, the tested form may be a part): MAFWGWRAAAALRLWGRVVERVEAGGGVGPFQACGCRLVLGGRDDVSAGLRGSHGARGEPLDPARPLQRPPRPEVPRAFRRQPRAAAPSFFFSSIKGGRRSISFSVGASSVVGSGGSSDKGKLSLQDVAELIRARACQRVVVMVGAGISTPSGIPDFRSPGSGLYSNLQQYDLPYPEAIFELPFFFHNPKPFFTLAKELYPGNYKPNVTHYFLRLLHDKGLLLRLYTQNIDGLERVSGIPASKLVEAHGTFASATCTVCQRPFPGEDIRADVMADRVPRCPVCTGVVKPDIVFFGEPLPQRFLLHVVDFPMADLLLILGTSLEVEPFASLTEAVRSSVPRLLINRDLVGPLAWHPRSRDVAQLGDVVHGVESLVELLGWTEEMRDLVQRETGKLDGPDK
Experiment: Inhibition of recombinant human SIRT3 (118 to 399 residues) demyristoylase activity expressed in Escherichia coli at 1 uM using p53(Myr)-AMC as substrate measured after 3 hrs in presence of NAD+ and trypsin by fluorescence assay relative to control
Residues, ends and D or L forms follow the SMILES beside them. *: point of attachment. Phenylacetyl(4-E-phenylazo) = O=C(Cc1ccc(/N=N/c2ccccc2)cc1)*; X2 = CN(C)c1ccc(/N=N/c2ccc(C(=O)*)cc2)cc1
readout-label: inhibition (%)
Report only the number, with the unit % understood.

See these solved cases before continuing.
CCCCCCCCCCCCCC(=S)NCCCC[C@H](NC(=O)OCc1ccccc1)C(=O)Nc1ccccc1 : -1.2
CC[C@H](C)[C@H](NC(=O)[C@@H](NC(=O)[C@H](CCCCNC(=O)c1ccc(/N=N/c2ccc(N(C)C)cc2)cc1)NC(=O)[C@H](CC(=O)O)NC(=O)[C@H](CO)NC(C)=O)[C@@H](C)O)C(N)=O (Ac-SDK(X2)TI-NH2) : -1.1

From here, focus on the item given below.
For CC[C@H](C)[C@H](NC(=O)[C@@H](NC(=O)[C@H](CCCCNC(=O)Cc1ccc(/N=N/c2ccccc2)cc1)NC(=O)[C@H](CC(=O)O)NC(=O)[C@H](CO)NC(C)=O)[C@@H](C)O)C(N)=O (Ac-SDK(Phenylacetyl(4-E-phenylazo))TI-NH2) the compound record lists inhibition as 5.6
